Cited source for all entries: ChEMBL document CHEMBL1201862

System: HCC 2998
Assay: NCI tumour cell line growth inhibition, 48 h
Calls of active or inactive are those of the source. Rule as the data show it: active = GI50 up to about 1.1 µM and inactive = higher.
Outcomes: 1.0 for active, 0.0 for inactive

- compound: "COc1cccc([C@H]2C/C(=N\\NC(=O)C(=O)N[C@@H](C)c3ccccc3)c3ccccc3N2)c1"
  discrete label: 1.0
- compound: "CCCCNC1=C2C(=O)NN=C2CO1"
  discrete label: 0.0
- compound: "NC(=O)NNCc1ccccc1"
  discrete label: 0.0
- compound: "CC(=O)Nc1ccc2c3c(cc(O)c2c1)N(C(=O)CCCC(=O)Nc1ccc2c4c(cc(O)c2c1)N(C(=O)OC(C)(C)C)CC4CCl)CC3CCl (stereo not given)"
  discrete label: 1.0
- compound: "CCC1(O)C(=O)OCc2c1cc1n(c2=O)Cc2cc3cc4c(cc3nc2-1)OCO4 (stereo not given)"
  discrete label: 1.0
- compound: "COC(=O)C(C(=O)C(=O)Nc1ccc(C)cc1C)c1csc(-n2nc(-c3ccccc3)cc2-c2ccccc2)n1 (stereo not given)"
  discrete label: 0.0
- compound: "COc1cccc2c1c1ccc3c(c1n2C)C(=O)C=CC3=O"
  discrete label: 0.0
- compound: "CC1(C)N=c2[nH]cnc2=C(C(N)=O)N1"
  discrete label: 0.0
- compound: "COc1cc(C(C)(C)C)c(OC(=O)/C=C/C(=O)O/C=C/[N+](=O)[O-])c(C(C)(C)C)c1"
  discrete label: 0.0
- compound: "COC(CC1(/C=C/O[Si](C(C)C)(C(C)C)C(C)C)C(=O)N(C)c2ccccc21)OC (stereo not given)"
  discrete label: 0.0

###

Each entry below carries its recorded GI50.
System: OVCAR-8
Assay: NCI tumour cell line growth inhibition, 48 h
Active and inactive are the calls of the source. Cut-off read from the data, not from the text of the source: active = GI50 up to about 1.1 µM and inactive = higher.
endpoint label: GI50

- compound: "CCOP(=O)(OCC)C1=C(c2ccccc2)OC(N)=C(C#N)C1c1ccc(Cl)cc1 (stereo not given)"
  result: "> 100 µM (inactive)"
- compound: "C[C@]12Cc3conc3C(O)=C1CC[C@@H]1C2CC[C@@]2(C)C1CC[C@@H]2O (stereo not given in full)"
  result: "25.8 µM (inactive)"
- compound: "COc1ccc(-n2cnc3c2=NC(C)(C)NC=3C(N)=O)c(OC)c1"
  result: "> 100 µM (inactive)"
- compound: "COc1ccc(-c2c(C(=O)Nc3ccccc3)c(-c3ccccc3)n(C3OC(CO)C(O)C(O)C3O)c(=S)c2C#N)cc1 (stereo not given)"
  result: "> 100 µM (inactive)"
- compound: "O=C(/N=N/c1ccccc1Br)NNc1ccccc1Br"
  result: "> 100 µM (inactive)"
- compound: "CNC(=O)N(C)C(=O)c1ccccc1C(=O)N(C)C(=O)NC"
  result: "> 10 µM (inactive)"
- compound: "CN1CCN(C(=S)N(C(=O)c2ccc(Cl)cc2)c2ccccc2)CC1"
  result: "> 100 µM (inactive)"
- compound: "NC(=S)N/N=C1/CCCC2CCCC[C@@H]12 (stereo not given in full)"
  result: "> 100 µM (inactive)"
- compound: "O=S(=O)(c1ccccc1)n1cc(C[P+](c2ccccc2)(c2ccccc2)c2ccccc2)c2ccccc21"
  result: "2.81 µM (inactive)"
- compound: "OC1CC(O)c2c(Cl)sc(Cl)c21 (stereo not given)"
  result: "41.5 µM (inactive)"

###

Tested on: MDA-MB-231
Test: NCI tumour cell line growth inhibition, 48 h
Active and inactive are the calls of the source. No stated cut-off is given here; in the data, active = GI50 up to about 1.1 µM and inactive = higher.
Outcome codes: True = active, False = inactive

- molecule: "CCOC(=O)c1c(-c2ccccc2)nc2c(OC)nccn12"
  discrete label: "False"
- molecule: "CC(C)(O)C1CC[C@]2(C)[C@H]3CC[C@@H]4[C@@]5(C)CCCC(C)(C)[C@@H]5CC[C@@]4(C)[C@]3(C)CC[C@@H]12 (some centres undefined)"
  discrete label: "False"
- molecule: "CC(=O)NC1C(OCc2ccccc2)OC(CO)C(O)C1OCC(=O)N[C@@H](C)C(=O)N[C@H](CCC(=O)NCCCNc1ccc([N+](=O)[O-])c2[nH]c3ccccc3c(=O)c12)C(N)=O (some centres undefined)"
  discrete label: "False"
- molecule: "c1ccc(B2OCC(C3OB(c4ccccc4)OC4COB(c5ccccc5)OC43)O2)cc1 (centres undefined)"
  discrete label: "False"
- molecule: "Cc1nc2c(n1-c1ccc(Br)cc1)C(=O)c1ccccc1C2=O"
  discrete label: "True"
- molecule: "CC(C)c1cccc(C(C)C)c1OS(=O)(=O)NC(=O)OC(C(F)(F)F)C(F)(F)F"
  discrete label: "False"
- molecule: "COc1cc(OC)c2nc(C)c3c(c2c1)NCC3"
  discrete label: "False"
- molecule: "CCOC(=O)c1c(O)nc(O)c(CC)c1C"
  discrete label: "False"
- molecule: "CC(=O)N1N=C(c2ccc3ccccc3c2O)CC1c1ccc(Cl)cc1Cl (centres undefined)"
  discrete label: "False"

###

System: HCC 2998
Assay: NCI tumour cell line growth inhibition, 48 h
The source made the active and inactive calls. No stated cut-off is given here; in the data, active = GI50 up to about 1.1 µM and inactive = higher.
endpoint label: GI50

- compound: "CC1(C)OCC(C2CCC3(C)C4=CCC5C(C)(C)C(O)CCC5(C)C4CCC23C)CC(O)C1O (stereo not given)"
  tested on: "HCC 2998"
  result: "15.5 µM (inactive)"
- compound: "CC1(c2cccc3ccccc23)OC(=O)c2ccccc21 (stereo not given)"
  tested on: "HCC 2998"
  result: "15.7 µM (inactive)"
- compound: "CC(=O)O[C@]1(C)CCC2C(C)C(=O)OC2C2C(C)[C@@H](O)CC21 (stereo not given in full)"
  tested on: "HCC 2998"
  result: "24.6 µM (inactive)"
- compound: "COc1ccc(-c2c(C(=O)Nc3ccccc3)c(-c3ccccc3)n(C3OC(CO)C(O)C(O)C3O)c(=S)c2C#N)cc1 (stereo not given)"
  tested on: "HCC 2998"
  result: "> 100 µM (inactive)"
- compound: "O=C(OCCOCBr)c1ccccc1"
  tested on: "HCC 2998"
  result: "> 100 µM (inactive)"
- compound: "COC(=O)c1ccccc1C1CN=NC12Cc1cc(C)c(C)cc1C2=O (stereo not given)"
  tested on: "HCC 2998"
  result: "55.2 µM (inactive)"
- compound: "CN(C)c1ccc(-c2c(C#N)c(S)n(NS(=O)(=O)c3ccccc3)c(=O)c2C#N)cc1"
  tested on: "HCC 2998"
  result: "70.8 µM (inactive)"
- compound: "c1ccc([P+](Cc2ccc(C[P+](c3ccccc3)(c3ccccc3)c3ccccc3)s2)(c2ccccc2)c2ccccc2)cc1"
  tested on: "HCC 2998"
  result: "> 100 µM (inactive)"
- compound: "Cc1ccc(/C=N/NS(=O)(=O)c2ccc(/C=C3\\NC(=O)NC3=O)cc2)cc1"
  tested on: "HCC 2998"
  result: "> 100 µM (inactive)"
- compound: "CCC(O)C1Cc2c(C)cc3c(c2O1)C(=O)c1ccccc1C3=O (stereo not given)"
  tested on: "HCC 2998"
  result: "29.6 µM (inactive)"
- compound: "O=C(/N=N/c1ccccc1Br)NNc1ccccc1Br"
  tested on: "HCC 2998"
  result: "22.5 µM (inactive)"
- compound: "CC(=O)OCC1OC(OCCCOP(=S)(OCCC#N)OCC2OC(n3ccc(N)nc3=O)C(OC(=O)c3ccccc3)C2OC(=O)c2ccccc2)C(OC(C)=O)C(OC(C)=O)C1OC(C)=O (stereo not given)"
  tested on: "HCC 2998"
  result: "> 100 µM (inactive)"
- compound: "C=CC[C@@]1(C#N)C[C@H](C[C@]2(C#N)C[C@H](CCl)OC(C)(C)O2)OC(C)(C)O1"
  tested on: "HCC 2998"
  result: "> 100 µM (inactive)"
- compound: "CCC(C)C1NC(=O)C(NC(=O)C(CC(C)C)N(C)C(=O)[C@@H]2C=CCN2C(=O)[C@H](C)O)C(C)OC(=O)[C@H](Cc2ccc(OC)cc2)N(C)C(=O)[C@@H]2CCCN2C(=O)[C@H](CC(C)C)NC(=O)C(C)C(=O)[C@H](C(C)C)OC(=O)CC1O (stereo not given in full)"
  tested on: "HCC 2998"
  result: "0.00306 µM (active)"
- compound: "C=CCN1CCC2(CC1)NC(=O)c1ccccc1O2"
  tested on: "HCC 2998"
  result: "> 100 µM (inactive)"
- compound: "COc1cc(CCC(=O)O)c2cc3ccccc3cc2c1O"
  tested on: "HCC 2998"
  result: "29 µM (inactive)"
- compound: "O=C(O)c1ccccc1/C=C1\\Cc2ccc3c(c2C1=O)CCCC3"
  tested on: "HCC 2998"
  result: "31.3 µM (inactive)"
- compound: "COC1(C)CP(=O)(OC(C)C)CC(C)=C1Cl (stereo not given)"
  tested on: "HCC 2998"
  result: "27 µM (inactive)"
- compound: "Cc1ccc(C2SCC(=O)N2c2ccc(-c3ccc(-n4c(-c5ccccc5)nc5ccccc5c4=O)cc3)cc2)cc1 (stereo not given)"
  tested on: "HCC 2998"
  result: "> 100 µM (inactive)"
- compound: "Cn1ccc(C(=O)NCCCCCNC(=O)c2ccn(C)c(=O)c2O)c(O)c1=O"
  tested on: "HCC 2998"
  result: "> 100 µM (inactive)"
- compound: "O=[N+]([O-])/C(C(Cl)=C(Cl)Cl)=C(/Nc1cccc2cccnc12)n1nnc2ccccc21"
  tested on: "HCC 2998"
  result: "44.1 µM (inactive)"
- compound: "Cc1ccc2nc(NC(=O)/C(=N\\NC(=S)NN)C3C(=O)NC(=S)NC3=O)sc2c1"
  tested on: "HCC 2998"
  result: "> 100 µM (inactive)"
- compound: "O=C1C[C@H](c2ccccc2)O[C@@H](c2ccccc2)C1"
  tested on: "HCC 2998"
  result: "> 100 µM (inactive)"
- compound: "COc1cc(C2CC(C)(N3CCOCC3)Oc3cc4c(cc32)OCO4)cc(OC)c1OC (stereo not given)"
  tested on: "HCC 2998"
  result: "0.427 µM (active)"
- compound: "N#C/C(=C\\c1ccccc1)c1nc(-c2cc3ccccc3oc2=O)cs1"
  tested on: "HCC 2998"
  result: "> 100 µM (inactive)"
